- target: T1, hGITR.mmh (human)
- T1 construct: soluble monomeric construct; also called human (h) GITR.mmh; monomeric human GITR
- T1 chain: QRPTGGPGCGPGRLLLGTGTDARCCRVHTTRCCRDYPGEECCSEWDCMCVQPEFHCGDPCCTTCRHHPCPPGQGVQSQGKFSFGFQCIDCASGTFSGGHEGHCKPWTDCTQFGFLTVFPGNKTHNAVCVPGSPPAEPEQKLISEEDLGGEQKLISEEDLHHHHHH
- assay name: SPR 37C, mAb capture
experimental readout: pKd
Numbers only, as −log10 of the molar value.

Example results:
{"binder": "H1H14493P (antibody, human IgG1, V domains shown, human IgG1 (H1H)) VH: QVQLVESGGGVVQPGRSLRLSCAASGFNFRSYGMHWVRQAPGKGLEWVAVIWYDGSNKYYADSVKGRFTISRDSSRDTLFLQMNSLRAGDTAVYYCARGGMLGRDYYYGMDVWGQGTTVTVSS VL: DIQMTQSPSSLSASVGDRVTITCRASQGIRNDLGWYQQKPGKAPKRLIYAASSLQSGVPSRFSGSGSGTEFTLTISSLQPEDFATYYCLQHNSYPNTFGQGTKLEIK", "experimental readout": "pKd", "data value": 7.87}
{"binder": "H4H14521P (antibody, human IgG4, V domains shown, human IgG4 (H4H)) VH: EVQLVESGGGLVQPGGSLRLSCAASGFTFRVYEMNWVRQAPGKGLEWISYIGSSGFTIYYADSVKGRFTISRDNAKNSLFLQLNSLRAEDTAVYYCARGWNDGVPNYLGMDVWGQGTTVTVSS VL: DIQMTQSPSSLSASVGDRVTITCQASQDINKYLNWYQQKPGKAPKLLIYDASNLETGVPSRFSGSGSGTDFTFTISSLQPEDIARYHCQQYDKIPLTFGGGTKVEIK", "experimental readout": "pKd", "data value": 7.64}
{"binder": "H1H14495P (antibody, human IgG1, V domains shown, human IgG1 (H1H)) VH: QVQLVESGGGAVQPGTSLRLSCAASGFTFSSFGMHWVRQAPGKGLEWVSVIWYEGSNKYYADSVKGRFTISRDNSRNTLSLQMDSLRVEDTAVYYCARGGELGVNYYYDMDVWGQGTTVTVSS VL: DIQMTQSPSSLSASVGDRVTITCRASQDIKNDLGWFQQKAGKAPKRLFYATSSLQSGVPSRFSGSGSGTEFTLTISSLQPEDFATYYCLQVHSYPRTFGQGTKVEIK", "experimental readout": "pKd", "data value": 8.61}

For each listed entry, give its pKd.
1. H1H14524P (antibody, human IgG1, V domains shown, human IgG1 (H1H)) VH: QVQLVESGGGVAQPGRSLSLSCAASGFTFSDYGMHWVRQAPGKGLEWVAVIWYAGSNKYYADSVKDRFTISRDNSKNTLYLQMRSLRVEDTAVYYCARGGELRLDYYSGLDVWGQGTTVTVSS VL: DIQMTQSPSSLSASVGDRVTVTCRASQGIRSDLGWYQQKPGKAPKRLIYAASSFQSGVPSRFSGSGSGTEFTLTISSLHPEDFATYYCLQSNNYPWTFGQGTKVEIK
2. H4H14528P (antibody, human IgG4, V domains shown, human IgG4 (H4H)) VH: QVQLVESGGGVVQPGRSLRISCAASGFTFNNYGFHWVRQAPGRGLEWVAVIWYSGSNKYYGDSVKGRFTISRDNSKNILYLQMNSLRAEDTAIYYCARFPFSSSWLLDYWGQGTLVTVSS VL: DIQLTQSPSFLSASVGDRVTFTCWASQGISDYLAWYQQKPGKAPKLLIYAASALQSGVPSRFSGSGSGTEFTLTVSSLQPEDFATYYCQQLNSYPFTFGPGTKVDIK
3. H1H14474P (antibody, human IgG1, V domains shown, human IgG1 (H1H)) VH: QVQLVESGGGVVQPGRSLRLSCAASGFTFSSYGMDWVRQAPGKGLEWVAVIWYPGSNKYYADSVKGRFTVSRDNSKNTLYLQMNSLRAEDTAVYYCARDGELGLDYYSGMDVWGQGTTVTVSS VL: DIQMTQSPSSLSASVGDRVTITCRASQGIRNDLNWYQQKPGKAPKRLINGASSLQSGVPSRFSGSGSGTEFTLTISSLQPEDFATYYCLQLNSYPRTFGQGTKVEIK

8.44
7.29
8.71

# return pKd for each item in the list
1. H1H14503P (antibody, human IgG1, V domains shown, human IgG1 (H1H)) VH: QVQLVESGGGVVQPGRSLRLSCEASGFTFSNYGFHWVRQAPGKGLDWVAVIWYAGSNKFYVDSVQGRFTISRDNSKQILFLQMNSLRAEDSAVYYCVRGGILGIDYYSGMDVWGQGTTVTVSS VL: AIQMTQSPSSLSASVGDRVTITCRASQDIRNDLGWYQQRPGKAPKFLIYSTSSLQSGVPSRFSGSGSGTDFILTISSLQPEDFATYYCLQSHNYPWTFGHGTKVEIK
2. H4H14530P (antibody, human IgG4, V domains shown, human IgG4 (H4H)) VH: QLQLQESGPGLVKPSETLSLTCTVSGGSISSTNHYWGWIRQPPGKGLEWIGNVYYIGNAYYNPSLKTGVTFSVDTSKNQFSLNLRSVTAADTAMYYCARLSNWNFLDLWGQGTLVTVSS VL: EIVMTQSPATLSVSPGERATLSCRASQSISSNLAWYQQKPGQAPRLLIYGASTRATGIPARFSGSGSGTEFTLTISSLQSEDFAVYYCQQFNNWLSFGGGTKVEIK
3. H4H14525P (antibody, human IgG4, V domains shown, human IgG4 (H4H)) VH: QVQLVESGGGVVQPGRSLRLSCAASGFTFSSYGMHWVRQAPGKGLEWVAVIWYVGSNKYYGESVKGRFTISRDNSKNTLYLQMNSLRDEDTAIYYCARGGQLGSFYYYGMDVWGQGTTVTVSS VL: DIQMTQSPSSLSASVGDRVTITCRASQGIRNDLGWYQQKPGKAPKRLIYDVSSLQSGVPSRFSGSGSGTEFTLTISSLQPEDLATYYCLQHNSYPWTFGQGTKVEIK

[8.86, 8.30, 7.28]

Which pKd is listed for H1H14491P (antibody, human IgG1, V domains shown, human IgG1 (H1H)) VH: QVQLVESGGGVVQPGRSLRLSCVASGFTFSDYGMHWVRQAPGKGLEWVAVIWYEGSNKYYADSVTGRFTISRDNSKNTLFLQMNSLKAEDTAEYYCAKDGGQLAYQYYYGMDVWGQGTTVTVSS VL: AIQMTQSPSSLSASVGDRVTLTCRASQGIRNDLGWYQQKPGKAPKSLIYAASNLQSGVPSRFSGSGSGTDFTLTISSLQPEDSATYYCLQDYNYPRTFGQGTKVEIK ?
8.30
